Assay: Antiproliferative activity against human SUM149PT cells after 48 hrs by alamar blue assay
Format: functional, cell-based
Please go through the items and note down their EC50.
Respond numerically; units are µM and should not be typed.

Q: Dear colleague, I am looking for the recorded EC50 of the following compound: `Clc1ccccc1Nc1nc2c(-c3nnc[nH]3)cccc2c2cscc12`
A: 2.6

Q: Dear colleague, I am looking for the recorded EC50 of the following compound: `Fc1ccccc1Nc1nc2c(-c3nnc[nH]3)cccc2c2sccc12`
A: 9.5

Q: Dear colleague, I am looking for the recorded EC50 of the following compound: `Fc1cccc(Nc2nc3c(-c4nnc[nH]4)cccc3c3sccc23)c1`
A: 8.1

Q: Dear colleague, I am looking for the recorded EC50 of the following compound: `Clc1ccccc1Nc1nc2c(-c3nnc[nH]3)cccc2c2sccc12`
A: 4.4

Q: Dear colleague, I am looking for the recorded EC50 of the following compound: `COc1ccc(Nc2nc3c(-c4nnc[nH]4)cccc3c3sccc23)cc1`
A: 8.2

Q: Dear colleague, I am looking for the recorded EC50 of the following compound: `Clc1ccccc1Nc1nc2c(-c3nnc[nH]3)cccc2c2scnc12`
A: 12.6

Q: Dear colleague, I am looking for the recorded EC50 of the following compound: `Fc1ccccc1Nc1nc2c(-c3nnc[nH]3)cccc2n2cccc12`
A: 22.8

Q: Dear colleague, I am looking for the recorded EC50 of the following compound: `Fc1ccccc1Nc1nc2c(-c3nnc[nH]3)cccc2n2cncc12`
A: 5.4

Q: Dear colleague, I am looking for the recorded EC50 of the following compound: `c1ccc(Nc2nc3c(-c4nnc[nH]4)cccc3c3sccc23)cc1`
A: 7

Q: Dear colleague, I am looking for the recorded EC50 of the following compound: `Clc1ccccc1Nc1nc2c(-c3nnc[nH]3)cccc2c2ccsc12`
A: 2.6

Q: Dear colleague, I am looking for the recorded EC50 of the following compound: `C#Cc1cccc(Nc2nc3c(-c4nnc[nH]4)cccc3c3sccc23)c1`
A: 9.6

====

Please go through the items and note down their IC50.
Tested target: Receptor-type tyrosine-protein kinase FLT3 (Homo sapiens, UniProt P36888)
Sequence (P36888 whole entry): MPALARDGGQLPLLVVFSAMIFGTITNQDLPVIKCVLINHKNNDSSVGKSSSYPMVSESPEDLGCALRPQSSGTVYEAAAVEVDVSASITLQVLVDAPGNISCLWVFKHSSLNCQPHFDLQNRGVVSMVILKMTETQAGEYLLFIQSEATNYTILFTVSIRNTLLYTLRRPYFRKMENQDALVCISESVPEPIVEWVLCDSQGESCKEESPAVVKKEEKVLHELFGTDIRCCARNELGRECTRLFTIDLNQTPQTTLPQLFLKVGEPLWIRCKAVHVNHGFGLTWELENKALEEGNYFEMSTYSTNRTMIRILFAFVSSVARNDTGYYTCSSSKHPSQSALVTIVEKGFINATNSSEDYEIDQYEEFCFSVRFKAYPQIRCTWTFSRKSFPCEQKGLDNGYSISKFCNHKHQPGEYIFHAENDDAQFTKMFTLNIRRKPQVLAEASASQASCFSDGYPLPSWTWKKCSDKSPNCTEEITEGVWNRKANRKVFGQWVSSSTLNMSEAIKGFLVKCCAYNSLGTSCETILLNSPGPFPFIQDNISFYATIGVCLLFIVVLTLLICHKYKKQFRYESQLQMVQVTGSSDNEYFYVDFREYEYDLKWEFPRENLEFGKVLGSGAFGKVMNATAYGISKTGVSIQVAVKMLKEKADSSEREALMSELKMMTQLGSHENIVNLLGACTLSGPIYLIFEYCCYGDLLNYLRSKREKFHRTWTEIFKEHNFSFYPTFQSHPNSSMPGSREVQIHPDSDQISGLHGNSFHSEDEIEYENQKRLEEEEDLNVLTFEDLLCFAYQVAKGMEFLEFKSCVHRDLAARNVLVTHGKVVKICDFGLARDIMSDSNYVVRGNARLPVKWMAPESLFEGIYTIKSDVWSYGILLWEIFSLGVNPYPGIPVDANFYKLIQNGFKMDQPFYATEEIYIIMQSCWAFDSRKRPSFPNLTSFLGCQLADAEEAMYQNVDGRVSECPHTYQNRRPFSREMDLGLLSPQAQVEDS

Q: Query the reported IC50 for Receptor-type tyrosine-protein kinase FLT3 (Homo sapiens, UniProt P36888); item: `Clc1ccccc1Nc1nc2c(-c3nnc[nH]3)cccc2c2ccsc12`
A: > 10 µM

Q: Query the reported IC50 for Receptor-type tyrosine-protein kinase FLT3 (Homo sapiens, UniProt P36888); item: `CNC(=O)c1cccc2c1nc(Nc1ccccc1Cl)c1ccsc12`
A: 5.3 µM

====

Tested target: Serine/threonine-protein kinase pim-1 (Homo sapiens)
Sequence (P11309 whole entry): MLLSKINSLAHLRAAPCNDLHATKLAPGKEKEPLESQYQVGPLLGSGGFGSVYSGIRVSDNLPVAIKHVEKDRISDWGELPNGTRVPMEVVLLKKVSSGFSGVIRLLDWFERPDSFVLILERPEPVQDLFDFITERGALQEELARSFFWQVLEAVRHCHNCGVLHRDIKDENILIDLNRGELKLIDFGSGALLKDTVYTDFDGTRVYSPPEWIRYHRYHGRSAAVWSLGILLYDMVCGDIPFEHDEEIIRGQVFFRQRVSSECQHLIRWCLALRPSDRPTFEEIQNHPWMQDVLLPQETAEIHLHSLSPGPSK
Assay: Inhibition of human recombinant Pim1 using RSRHSSYPAGT as substrate and 30 uM ATP by radiometric assay
Property measured: pIC50
Reminder that pIC50 is minus the log10 of a molar concentration.

Q: Query the reported pIC50 for Serine/threonine-protein kinase pim-1 (Homo sapiens); item: `NC(=O)c1ccc(Nc2nc3c(-c4nnc[nH]4)cccc3c3sccc23)cc1`
A: 7.77

Q: Query the reported pIC50 for Serine/threonine-protein kinase pim-1 (Homo sapiens); item: `COc1ccccc1Nc1nc2c(-c3nnc[nH]3)cccc2c2sccc12`
A: 8.15

Q: Query the reported pIC50 for Serine/threonine-protein kinase pim-1 (Homo sapiens); item: `Clc1cccc(Nc2nc3c(-c4nnc[nH]4)cccc3c3sccc23)c1`
A: 8.22

Q: Query the reported pIC50 for Serine/threonine-protein kinase pim-1 (Homo sapiens); item: `c1ccc(Nc2nc3c(-c4nnc[nH]4)cccc3n3cccc23)cc1`
A: 7.85

Q: Query the reported pIC50 for Serine/threonine-protein kinase pim-1 (Homo sapiens); item: `Fc1ccccc1Nc1nc2c(-c3nnc[nH]3)cccc2n2cccc12`
A: 8.10

Q: Query the reported pIC50 for Serine/threonine-protein kinase pim-1 (Homo sapiens); item: `Fc1ccc(Nc2nc3c(-c4nnc[nH]4)cccc3c3sccc23)c(Cl)c1`
A: 8.05

Q: Query the reported pIC50 for Serine/threonine-protein kinase pim-1 (Homo sapiens); item: `Clc1ccccc1Nc1nc2c(-c3nnc[nH]3)cccc2c2scnc12`
A: 8.10

Q: Query the reported pIC50 for Serine/threonine-protein kinase pim-1 (Homo sapiens); item: `CN(C)CCOc1ccc(Nc2nc3c(-c4nnc[nH]4)cccc3c3sccc23)cc1`
A: 7.80

Q: Query the reported pIC50 for Serine/threonine-protein kinase pim-1 (Homo sapiens); item: `Fc1cc(F)cc(Nc2nc3c(-c4nnc[nH]4)cccc3c3sccc23)c1`
A: 8.05

Q: Query the reported pIC50 for Serine/threonine-protein kinase pim-1 (Homo sapiens); item: `Fc1ccc(Nc2nc3c(-c4nnc[nH]4)cccc3c3sccc23)cc1F`
A: 8.05

Q: Query the reported pIC50 for Serine/threonine-protein kinase pim-1 (Homo sapiens); item: `c1cc(-c2nnc[nH]2)c2nc(Nc3ccncc3)c3ccsc3c2c1`
A: 7.04

Q: Query the reported pIC50 for Serine/threonine-protein kinase pim-1 (Homo sapiens); item: `Clc1ccccc1Nc1nc2c(-c3nnc[nH]3)cccc2c2ccsc12`
A: 8.40

Q: Query the reported pIC50 for Serine/threonine-protein kinase pim-1 (Homo sapiens); item: `FC(F)(F)c1cccc(Nc2nc3c(-c4nnc[nH]4)cccc3c3sccc23)c1`
A: 7.80

Q: Query the reported pIC50 for Serine/threonine-protein kinase pim-1 (Homo sapiens); item: `C#Cc1cccc(Nc2nc3c(-c4nnc[nH]4)cccc3c3sccc23)c1`
A: 8.22

Q: Query the reported pIC50 for Serine/threonine-protein kinase pim-1 (Homo sapiens); item: `Fc1ccc(Nc2nc3c(-c4nnc[nH]4)cccc3c3sccc23)cc1`
A: 8.40

Q: Query the reported pIC50 for Serine/threonine-protein kinase pim-1 (Homo sapiens); item: `Oc1ccc(Nc2nc3c(-c4nnc[nH]4)cccc3c3sccc23)c(Cl)c1`
A: 7.85

Q: Query the reported pIC50 for Serine/threonine-protein kinase pim-1 (Homo sapiens); item: `Fc1ccccc1Nc1nc2c(-c3nnc[nH]3)cccc2n2cncc12`
A: 7.42
